# ASSAY: Metabolic stability: unbound intrinsic clearance in liver microsomes
# Format: in vitro ADME
# RECORDED CONDITIONS: rat; liver microsomes 0.25 mg protein/mL, 0.5 μM compound, pH 7.4, 37° C.; Cl int unbound=Cl int/fu mic; compounds used as acid addition salts; read-out: Cl int, mic unb. (r) (unbound intrinsic clearance)
METRIC: CLint scaled at 0.5 μM

As a guide, the following entries are already answered.
Using the record for COc1cc(O[C@H]2CC[C@H](C(F)(F)F)CC2)c(F)cc1CNC(=O)[C@@H]1CCCN1 , report its CLint scaled at 0.5 μM. < 500 mL/min/kg

Using the record for COc1cc(OCc2cc(F)cc(F)c2F)c(F)cc1CNC(=O)[C@@H]1CCCN1 , report its CLint scaled at 0.5 μM. 1330 to 4170 mL/min/kg

Using the record for COc1cc(OCCc2ccc(F)cc2)c(F)cc1CNC(=O)[C@@H]1CCCN1 , report its CLint scaled at 0.5 μM. 1330 to 4170 mL/min/kg

Continuing:
Using the record for COc1cc(OCc2ccnc(F)c2)c(F)cc1CNC(=O)[C@@H]1CCCN1 , report its CLint scaled at 0.5 μM. < 500 mL/min/kg

Using the record for COc1cc(OCc2c(F)ccc(F)c2Cl)c(F)cc1CNC(=O)[C@@H]1CCCN1 , report its CLint scaled at 0.5 μM. 1330 to 4170 mL/min/kg

Using the record for COc1cc(OCc2cncc(F)c2)c(F)cc1CNC(=O)[C@@H]1CCCN1 , report its CLint scaled at 0.5 μM. 500 to 1330 mL/min/kg

Using the record for COc1cc(OCC2CCC(F)(F)CC2)c(F)cc1CNC(=O)[C@@H]1CCCN1 , report its CLint scaled at 0.5 μM. < 500 mL/min/kg

Using the record for COc1cc(OCCc2ccc(C(F)(F)F)cc2)c(F)cc1CNC(=O)[C@@H]1CCCN1 , report its CLint scaled at 0.5 μM. 1330 to 4170 mL/min/kg

* * *

Recorded measurements of Emax, one per entry
# MEASURED TARGET: 5-HT2C receptor (Homo sapiens, UniProt P28335)
# Construct: host or cells: U2OS
# Sequence (P28335 33-458): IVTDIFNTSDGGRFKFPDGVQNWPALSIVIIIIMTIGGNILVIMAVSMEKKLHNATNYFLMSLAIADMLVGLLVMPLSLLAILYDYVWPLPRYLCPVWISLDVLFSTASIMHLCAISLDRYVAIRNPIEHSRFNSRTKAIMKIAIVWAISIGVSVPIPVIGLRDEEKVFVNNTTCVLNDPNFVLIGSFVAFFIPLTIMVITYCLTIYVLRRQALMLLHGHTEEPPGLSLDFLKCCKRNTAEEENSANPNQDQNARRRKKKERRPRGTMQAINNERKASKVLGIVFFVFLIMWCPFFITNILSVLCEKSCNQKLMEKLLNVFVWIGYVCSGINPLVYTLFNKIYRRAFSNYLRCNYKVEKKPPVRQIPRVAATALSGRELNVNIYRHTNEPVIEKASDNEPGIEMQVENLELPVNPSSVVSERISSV
# Sequence (P32121 whole entry partner): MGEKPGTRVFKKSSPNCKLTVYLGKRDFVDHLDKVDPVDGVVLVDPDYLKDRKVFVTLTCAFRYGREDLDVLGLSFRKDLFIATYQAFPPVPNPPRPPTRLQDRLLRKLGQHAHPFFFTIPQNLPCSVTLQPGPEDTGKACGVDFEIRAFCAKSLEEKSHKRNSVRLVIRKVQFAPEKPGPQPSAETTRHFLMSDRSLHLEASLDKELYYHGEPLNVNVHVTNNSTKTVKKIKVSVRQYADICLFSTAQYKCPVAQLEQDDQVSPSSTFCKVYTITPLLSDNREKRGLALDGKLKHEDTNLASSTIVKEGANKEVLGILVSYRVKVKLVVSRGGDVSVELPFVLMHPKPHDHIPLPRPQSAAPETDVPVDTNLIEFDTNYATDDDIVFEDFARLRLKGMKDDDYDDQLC
# ASSAY: Human 5-HT2C functional assay (beta-arrestin2 recruitment, U2OS_HTR2C_β-Arrestin cells)
# Type: cell-based
# RECORDED CONDITIONS: relative efficacy vs response to 10 µM 5-HT or maximal effect of 5-HT (100%); compounds used as acid addition salts
# Description: The functional activity of compounds of formula I was assayed by incubation with U2OS_HTR2C_β-Arrestin cells (DiscoverX, 93-0289C3) to induce beta-arrestin2 recruitment to the 5-HT2C receptor. […] The enzyme complementation results in enzyme activity, which is measured following the termination of the agonist incubation using DiscoveRx's detection reagent, which contains a chemiluminescent substrate which produces a high intensity signal. […]

As a guide, the following entries are already answered.
Using the record for COc1cc(OCC2CCC(F)(F)CC2)c(F)cc1CNC(=O)[C@@H]1CCCN1 [Example 32] , report its Emax. > 70%

Using the record for COc1cc(OCCc2cccc(F)c2)c(F)cc1CNC(=O)[C@@H]1CCCN1 [Example 12] , report its Emax. > 70%

Using the record for COc1cc(OCC(F)(F)C(F)F)c(F)cc1CNC(=O)[C@@H]1CCCN1 [Example 20] , report its Emax. > 70%

Kindly review the next compound as well.
Using the record for COc1cc(OCC2(C(F)(F)F)CC2)c(F)cc1CNC(=O)[C@@H]1CCCN1 [Example 27] , report its Emax. > 70%

* * *

# ASSAY: Metabolic stability: unbound intrinsic clearance in liver microsomes
# Format: in vitro ADME
# RECORDED CONDITIONS: rat; liver microsomes 0.25 mg protein/mL, 0.5 μM compound, pH 7.4, 37° C.; Cl int unbound=Cl int/fu mic; compounds used as acid addition salts; read-out: Cl int, mic unb. (r) (unbound intrinsic clearance)
METRIC: CLint scaled at 0.5 μM

As a guide, the following entries are already answered.
Using the record for COc1cc(OCCC(F)(F)C(F)(F)F)c(F)cc1CNC(=O)[C@@H]1CCCN1 , report its CLint scaled at 0.5 μM. < 500 mL/min/kg

Using the record for COc1cc(OCCC(F)(F)F)c(F)cc1CNC(=O)[C@@H]1CCCN1 , report its CLint scaled at 0.5 μM. < 500 mL/min/kg

Using the record for COc1cc(OCC(C)CC(F)(F)F)c(F)cc1CNC(=O)[C@@H]1CCCN1 (stereo partly shown) , report its CLint scaled at 0.5 μM. 500 to 1330 mL/min/kg

Using the record for COc1cc(OCc2ccc(C(F)(F)F)o2)c(F)cc1CNC(=O)[C@@H]1CCCN1 , report its CLint scaled at 0.5 μM. 1330 to 4170 mL/min/kg

Continuing:
Using the record for COc1cc(OCc2cccc(F)c2)c(F)cc1CNC(=O)[C@@H]1CCCN1 , report its CLint scaled at 0.5 μM. 1330 to 4170 mL/min/kg

Using the record for COc1cc(OC2CCCC(C(F)(F)F)C2)c(F)cc1CNC(=O)[C@@H]1CCCN1 (stereo partly shown) , report its CLint scaled at 0.5 μM. 500 to 1330 mL/min/kg

Using the record for COc1cc(OCC(F)(F)C(F)F)c(F)cc1CNC(=O)[C@@H]1CCCN1C , report its CLint scaled at 0.5 μM. 500 to 1330 mL/min/kg

Using the record for COc1cc(OC2CCC(F)(F)CC2)c(F)cc1CNC(=O)[C@@H]1CCCN1C , report its CLint scaled at 0.5 μM. 500 to 1330 mL/min/kg

Using the record for COc1cc(OCc2ccccc2F)c(F)cc1CNC(=O)[C@@H]1CCCN1 , report its CLint scaled at 0.5 μM. 1330 to 4170 mL/min/kg

Using the record for COc1cc(OCC(F)(F)C(F)F)c(F)cc1CNC(=O)[C@@H]1CCCN1 , report its CLint scaled at 0.5 μM. < 500 mL/min/kg

Using the record for COc1cc(OCC(F)(F)C(F)C(F)(F)F)c(F)cc1CNC(=O)[C@@H]1CCCN1 (stereo partly shown) , report its CLint scaled at 0.5 μM. < 500 mL/min/kg

Using the record for COc1cc(OCCc2ccccc2F)c(F)cc1CNC(=O)[C@@H]1CCCN1 , report its CLint scaled at 0.5 μM. 1330 to 4170 mL/min/kg

Using the record for COc1cc(OCc2cccc(F)c2F)c(F)cc1CNC(=O)[C@@H]1CCCN1 , report its CLint scaled at 0.5 μM. 1330 to 4170 mL/min/kg

Using the record for COc1cc(O[C@H]2CC[C@@H](F)CC2)c(F)cc1CNC(=O)[C@@H]1CCCN1 , report its CLint scaled at 0.5 μM. < 500 mL/min/kg

Using the record for COc1cc(OCCc2cccc(F)c2)c(F)cc1CNC(=O)[C@@H]1CCCN1 , report its CLint scaled at 0.5 μM. 1330 to 4170 mL/min/kg

Using the record for COc1cc(O[C@H]2CC[C@H](C(F)(F)F)CC2)c(F)cc1CNC(=O)[C@@H]1CCN1 , report its CLint scaled at 0.5 μM. < 500 mL/min/kg

* * *

# MEASURED TARGET: 5-HT2C receptor (Homo sapiens)
# ASSAY: Human 5-HT2C functional assay (beta-arrestin2 recruitment, U2OS_HTR2C_β-Arrestin cells)
# RECORDED CONDITIONS: U2OS_HTR2C_β-Arrestin cells, 1.5 h incubation; compounds used as acid addition salts; read-out: EC50 5-HT2C (potency in functional assay)
Recorded measurements of EC50, one per entry

As a guide, the following entries are already answered.
Using the record for COc1cc(OCc2ccc(C(F)(F)F)o2)c(F)cc1CNC(=O)[C@@H]1CCCN1 , report its EC50. 5 to 15 nM

Using the record for COc1cc(OCc2cccc(F)c2)c(F)cc1CNC(=O)[C@@H]1CCCN1 , report its EC50. < 5 nM

Using the record for COc1cc(OCc2ccc(C(F)(F)F)nc2)c(F)cc1CNC(=O)[C@@H]1CCCN1 , report its EC50. 15 to 30 nM

Using the record for COc1cc(OCC2CC(F)(F)C2)c(F)cc1CNC(=O)[C@@H]1CCCN1 , report its EC50. 5 to 15 nM

Using the record for COc1cc(OC2CCC(F)(F)CC2)c(F)cc1CNC(=O)[C@@H]1CCCN1 , report its EC50. 5 to 15 nM

Continuing:
Using the record for COc1cc(OCc2ccccc2F)c(F)cc1CNC(=O)[C@@H]1CCCN1 , report its EC50. 15 to 30 nM

Using the record for COc1cc(OCc2cc(F)cc(F)c2)c(F)cc1CNC(=O)[C@@H]1CCCN1 , report its EC50. < 5 nM

Using the record for COc1cc(OCC2CC2(F)F)c(F)cc1CNC(=O)[C@@H]1CCCN1 (stereo partly drawn) , report its EC50. 15 to 30 nM

Using the record for COc1cc(OC2CC(F)(F)C2)c(F)cc1CNC(=O)[C@@H]1CCCN1C , report its EC50. 5 to 15 nM

Source of measurements: patent US20200039930A1
